tested on: GP2d cells (KRAS G12D); assay: Cell-based pERK HTRF assay in GP2d cell (Biological Example 2); details: GP2d, GP2d (KRAS G12D) cells, pERK HTRF
MEASUREMENT NAME: IC50

Past entries and their recorded results:
COMPOUND	MEASUREMENT NAME	OBSERVED
C[C@H]1CC[C@@H](O)CN1c1nc(OC[C@@]23CCCN2C[C@H](F)C3)nc2c(F)c(-c3ccc(F)c4sc(N)c(C#N)c34)c(C(F)(F)F)cc12 [Compound 317]	IC50	< 0.1 µM
CN(CCO)c1nc(OC[C@@]23CCCN2C[C@H](F)C3)nc2c(F)c(-c3ccc(F)c4sc(N)nc34)c(C(F)(F)F)cc12 [Compound 82]	IC50	0.1 to 1 µM

Now turn to the next compound.
For the compound N#Cc1c(N)sc2c(F)ccc(-c3c(C(F)(F)F)cc4c(N5CC6C(=O)NC(=O)C6C5)nc(OC[C@@]56CCCN5C[C@H](F)C6)nc4c3F)c12 (stereo partly drawn) [Compound 308] , report IC50.
0.1 to 1 µM
